target: CDK7/CycH/MAT1 kinase (Homo sapiens); assay: CDK7 kinase activity inhibition assay (ADP-Glo); format: biochemical
Sequence (P50613 whole entry, species assumed): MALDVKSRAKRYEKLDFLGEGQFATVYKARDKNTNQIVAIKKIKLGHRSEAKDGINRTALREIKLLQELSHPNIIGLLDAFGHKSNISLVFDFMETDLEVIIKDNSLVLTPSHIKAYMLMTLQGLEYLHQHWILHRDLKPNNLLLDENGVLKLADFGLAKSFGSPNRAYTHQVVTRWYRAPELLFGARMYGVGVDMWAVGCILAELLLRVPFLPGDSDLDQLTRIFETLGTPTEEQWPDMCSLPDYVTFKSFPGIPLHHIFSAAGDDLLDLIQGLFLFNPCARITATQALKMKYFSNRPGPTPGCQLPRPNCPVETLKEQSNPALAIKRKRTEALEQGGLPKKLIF
Sequence (P51946 whole entry partner, species assumed): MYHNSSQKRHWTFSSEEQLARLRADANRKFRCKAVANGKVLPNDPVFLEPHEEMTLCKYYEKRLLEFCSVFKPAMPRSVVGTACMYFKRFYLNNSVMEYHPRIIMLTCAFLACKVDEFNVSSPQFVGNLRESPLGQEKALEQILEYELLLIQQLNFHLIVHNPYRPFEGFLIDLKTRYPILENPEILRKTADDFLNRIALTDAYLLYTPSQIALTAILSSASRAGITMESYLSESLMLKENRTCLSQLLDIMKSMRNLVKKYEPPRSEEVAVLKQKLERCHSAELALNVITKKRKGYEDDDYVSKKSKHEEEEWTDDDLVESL
Sequence (P51948 whole entry partner, species assumed): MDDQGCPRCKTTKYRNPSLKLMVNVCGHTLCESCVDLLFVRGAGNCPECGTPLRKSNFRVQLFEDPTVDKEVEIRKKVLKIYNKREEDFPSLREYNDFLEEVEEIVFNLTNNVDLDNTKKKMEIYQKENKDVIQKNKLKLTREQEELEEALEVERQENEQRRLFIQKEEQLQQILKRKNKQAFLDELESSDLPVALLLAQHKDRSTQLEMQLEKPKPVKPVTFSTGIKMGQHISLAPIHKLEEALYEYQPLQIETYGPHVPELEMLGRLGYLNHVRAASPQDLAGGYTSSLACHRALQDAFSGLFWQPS
pIC50: −log10 of the molar value.
Reported metric: pIC50

Qu. Give CDK7/CycH/MAT1 kinase (Homo sapiens) pIC50 for CNC(=O)c1ccccc1Nc1cc(Nc2cc3c(cc2OC)N2CCN(C4CCN(C)CC4)C[C@@H]2CO3)ncc1C(F)(F)F [Compound D2R]
Ans. > 7.82

* * *

molecular target: FAK kinase (Homo sapiens, UniProt Q05397); assay: FAK kinase activity inhibition assay, method A (HTRF); format: biochemical; conditions: Table 2; HTRF; ATP 10 µM; read-out: FAK (method A) (IC50)
Sequence (Q05397 whole entry): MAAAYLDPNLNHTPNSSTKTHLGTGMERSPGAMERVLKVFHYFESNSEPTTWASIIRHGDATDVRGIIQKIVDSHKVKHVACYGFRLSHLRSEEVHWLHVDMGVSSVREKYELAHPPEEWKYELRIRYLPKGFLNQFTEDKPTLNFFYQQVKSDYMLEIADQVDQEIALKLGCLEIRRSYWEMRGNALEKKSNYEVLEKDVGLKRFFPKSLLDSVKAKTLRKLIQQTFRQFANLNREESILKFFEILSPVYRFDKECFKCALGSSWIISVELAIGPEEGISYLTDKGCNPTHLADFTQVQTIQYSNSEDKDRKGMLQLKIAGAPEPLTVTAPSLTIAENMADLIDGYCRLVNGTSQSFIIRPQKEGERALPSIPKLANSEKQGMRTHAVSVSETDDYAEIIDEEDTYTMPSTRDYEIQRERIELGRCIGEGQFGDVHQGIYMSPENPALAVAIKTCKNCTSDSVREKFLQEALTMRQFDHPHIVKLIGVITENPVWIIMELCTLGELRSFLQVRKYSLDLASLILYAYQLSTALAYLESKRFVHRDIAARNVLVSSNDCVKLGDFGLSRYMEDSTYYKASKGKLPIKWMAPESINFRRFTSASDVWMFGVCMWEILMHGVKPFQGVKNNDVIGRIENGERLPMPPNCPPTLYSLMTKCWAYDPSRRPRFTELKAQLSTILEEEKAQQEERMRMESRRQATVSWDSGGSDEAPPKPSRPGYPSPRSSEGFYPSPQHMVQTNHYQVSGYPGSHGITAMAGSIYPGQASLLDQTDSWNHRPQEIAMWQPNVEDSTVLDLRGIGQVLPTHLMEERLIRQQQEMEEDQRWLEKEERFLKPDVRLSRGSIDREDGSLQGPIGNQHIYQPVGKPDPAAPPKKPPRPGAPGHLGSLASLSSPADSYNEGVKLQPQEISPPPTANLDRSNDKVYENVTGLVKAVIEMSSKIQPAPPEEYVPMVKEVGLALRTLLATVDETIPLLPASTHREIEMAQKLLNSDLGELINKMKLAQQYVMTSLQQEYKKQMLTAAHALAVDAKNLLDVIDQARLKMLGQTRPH
Reported metric: IC50

Some compounds with known IC50 results, for comparison:
1. COc1cc2c(cc1Nc1ncc(C(F)(F)F)c(CCc3ccccc3CC(N)=O)n1)OC[C@H]1CN(C3CCNCC3)CCN21 [Compound B10R]
< 0.5 nM
2. COc1cc2c(cc1Nc1ncc(C(F)(F)F)c(CCc3ccccc3CC(N)=O)n1)OC[C@H]1CN(C)CCN21
< 0.5 nM

The record that follows has no IC50 shown yet.
Qu. Entry under review: COc1cc2c(cc1Nc1ncc(C(F)(F)F)c(CCc3ccccc3CC(N)=O)n1)OC[C@H]1CNCCN21 . Reported IC50?
Ans. < 0.5 nM

* * *

test: Pharmacokinetic study in rats; conditions: rat, plasma, po, 3 mg/kg
Reported metric: AUC(0-t) at 24 h (ng·h/mL)
I only need the number, in ng·h/mL, no unit after it.

Some compounds with known AUC(0-t) at 24 h results, for comparison:
1. COc1cc2c(cc1Nc1ncc(Cl)c(Nc3ccccc3S(=O)(=O)C(C)C)n1)OC[C@@H]1CN(C3CCOCC3)CCN21
136
2. COc1cc2c(cc1Nc1ncc(Cl)c(Nc3cccnc3N3CCCC3=O)n1)OC[C@H]1CN(C)CCN21
332
3. COc1cc2c(cc1Nc1ncc(C(F)(F)F)c(CCc3ccccc3CC(N)=O)n1)OC[C@H]1CNCCN21
690
4. COc1cc2c(cc1Nc1ncc(C(F)(F)F)c(CCc3ccccc3CC(N)=O)n1)OC[C@H]1CN(S(C)(=O)=O)CCN21
133
5. CCN1CCN2c3cc(OC)c(Nc4ncc(C(F)(F)F)c(CCc5ccccc5CC(N)=O)n4)cc3OC[C@H]2C1
685

The record that follows has no AUC(0-t) at 24 h shown yet.
Qu. Entry under review: CNC(=O)c1ccccc1Nc1cc(Nc2cc3c(cc2OC(C)C)N2CCN(C4CCN(C)CC4)C[C@H]2CO3)ncc1C(F)(F)F . Reported AUC(0-t) at 24 h?
Ans. 675

* * *

assay: Pharmacokinetic study in rats; settings: rat, plasma, po, 3 mg/kg
AUC(0-t) at 24 h values by entry
I only need the number, in ng·h/mL, no unit after it.

1. COc1cc2c(cc1Nc1ncc(Cl)c(Nc3cccnc3N3CCCC3=O)n1)OC[C@H]1CN(C(=O)C3CC3)CCN21
473
2. COc1cc2c(cc1Nc1ncc(Cl)c(Nc3cccnc3N3CCCC3=O)n1)OC[C@H]1CN(C(C)=O)CCN21
1560
3. CCc1cc2c(cc1Nc1ncc(C(F)(F)F)c(NCCCN3CCCCC3=O)n1)OC[C@H]1CN(C)CCN21
685

The record that follows has no AUC(0-t) at 24 h shown yet.
Qu. Entry under review: COc1cc2c(cc1Nc1ncc(C(F)(F)F)c(CCc3ccccc3CC(N)=O)n1)OC[C@H]1CN(C3CN(C)C3)CCN21 . Reported AUC(0-t) at 24 h?
Ans. 368

* * *

test: in vivo; conditions: rat, po, 3 mg/kg
Reported metric: Tmax
Please state the value followed by its unit.

Qu. Entry under review: CCc1cc2c(cc1Nc1ncc(C(F)(F)F)c(NCCCN3CCOCCC3=O)n1)OC[C@H]1CN(C3COC3)CCN21 [Compound A12R] . Reported Tmax?
Ans. 30 min

* * *

test: in vivo; settings: rat, po, 3 mg/kg
Reported metric: AUC(0-t) at 24 h (ng·h/mL)
I only need the number, in ng·h/mL, no unit after it.

Qu. Entry under review: CCc1cc2c(cc1Nc1ncc(C(F)(F)F)c(NCCCN3CCOCCC3=O)n1)OC[C@H]1CN(C3COC3)CCN21 [Compound A12R] . Reported AUC(0-t) at 24 h?
Ans. 1460

* * *

Target: TNK1 kinase (Homo sapiens, UniProt Q13470)
Sequence (Q13470 1-666): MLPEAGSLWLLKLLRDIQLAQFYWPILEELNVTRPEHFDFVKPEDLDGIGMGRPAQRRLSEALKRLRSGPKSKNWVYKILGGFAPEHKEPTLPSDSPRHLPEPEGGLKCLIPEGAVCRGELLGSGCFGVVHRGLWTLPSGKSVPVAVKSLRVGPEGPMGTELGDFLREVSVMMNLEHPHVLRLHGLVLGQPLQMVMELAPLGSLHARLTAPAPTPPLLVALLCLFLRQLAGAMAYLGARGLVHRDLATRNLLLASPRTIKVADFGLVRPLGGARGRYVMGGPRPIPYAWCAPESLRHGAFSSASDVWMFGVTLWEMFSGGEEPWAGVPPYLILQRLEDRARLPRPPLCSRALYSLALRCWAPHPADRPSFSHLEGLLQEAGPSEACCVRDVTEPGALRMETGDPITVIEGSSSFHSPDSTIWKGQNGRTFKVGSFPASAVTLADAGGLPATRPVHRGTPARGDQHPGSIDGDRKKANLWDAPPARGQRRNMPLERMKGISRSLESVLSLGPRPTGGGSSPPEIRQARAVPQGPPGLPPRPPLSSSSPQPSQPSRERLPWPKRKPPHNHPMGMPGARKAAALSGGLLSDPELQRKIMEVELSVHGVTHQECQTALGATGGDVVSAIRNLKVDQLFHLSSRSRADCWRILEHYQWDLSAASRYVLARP
Experiment: TNK1 kinase activity inhibition assay (ADP-Glo)
Format: biochemical
Protocol: Measure compound inhibitory activity against TNK1 kinase using ADP-Glo Assay. 1× kinase reaction buffer was prepared (working concentrations: HEPES 50 mM, MgCl2 10 mM, Brij35 0.01%, EGTA 1 mM, DTT 2 mM). […] Relative luminescence units (RLU) were measured using a BMG microplate reader, with signal intensity representing kinase activity level. […]
IC50 values by entry

1) COc1cc2c(cc1Nc1ncc(Cl)c(Nc3cccnc3N3CCCC3=O)n1)OC[C@H]1CN(C3CN(C)C3)CCN21
< 2 nM
2) CNC(=O)c1ccccc1Nc1cc(Nc2cc3c(cc2OC)N2CCN(C4CCN(C)CC4)C[C@H]2CO3)ncc1C(F)(F)F
< 10 nM
3) COc1cc2c(cc1Nc1ncc(Cl)c(Nc3cccnc3N3CCCC3=O)n1)OC[C@H]1CN(C3CCOCC3)CCN21
< 0.5 nM
4) COc1cc2c(cc1Nc1ncc(Cl)c(Nc3cccnc3N3CCCC3=O)n1)OC[C@H]1CNCCN21
< 0.5 nM
5) COc1cc2c(cc1Nc1ncc(Cl)c(Nc3cccnc3N3CCCC3=O)n1)OC[C@H]1CN(C3CCN(C(C)=O)CC3)CCN21 [Compound E11R]
< 1 nM

Qu. Entry under review: COc1cc2c(cc1Nc1ncc(Cl)c(Nc3cccnc3N3CCCC3=O)n1)OC[C@H]1CN(C(=O)C3CC3)CCN21 . Reported IC50?
Ans. < 2 nM

Qu. Another molecule to check: CCC(=O)N1CCN2c3cc(OC)c(Nc4ncc(Cl)c(Nc5cccnc5N5CCCC5=O)n4)cc3OC[C@H]2C1
Ans. < 1 nM

Qu. Another molecule to check: CCN1CCC(N2CCN3c4cc(OC)c(Nc5ncc(Cl)c(Nc6cccnc6N6CCCC6=O)n5)cc4OC[C@H]3C2)CC1
Ans. < 1 nM

Qu. Another molecule to check: COc1cc2c(cc1Nc1ncc(Cl)c(Nc3cccnc3N3CCCC3=O)n1)OC[C@H]1CN(C(C)=O)CCN21
Ans. < 0.5 nM

Qu. Another molecule to check: COc1cc2c(cc1Nc1ncc(Cl)c(Nc3cccnc3N3CCCC3=O)n1)OC[C@H]1CN(C3CCN(C4CC4)CC3)CCN21 [Compound E10R]
Ans. < 0.5 nM

Qu. Another molecule to check: COc1cc2c(cc1Nc1ncc(Cl)c(Nc3cccnc3N3CCCC3=O)n1)OC[C@H]1CN(C)CCN21
Ans. < 0.5 nM

* * *

IC50 values by entry
target: ULK2 kinase (Homo sapiens); assay: ULK kinase activity inhibition assay (ADP-Glo); type: biochemical
Sequence (Q8IYT8 whole entry): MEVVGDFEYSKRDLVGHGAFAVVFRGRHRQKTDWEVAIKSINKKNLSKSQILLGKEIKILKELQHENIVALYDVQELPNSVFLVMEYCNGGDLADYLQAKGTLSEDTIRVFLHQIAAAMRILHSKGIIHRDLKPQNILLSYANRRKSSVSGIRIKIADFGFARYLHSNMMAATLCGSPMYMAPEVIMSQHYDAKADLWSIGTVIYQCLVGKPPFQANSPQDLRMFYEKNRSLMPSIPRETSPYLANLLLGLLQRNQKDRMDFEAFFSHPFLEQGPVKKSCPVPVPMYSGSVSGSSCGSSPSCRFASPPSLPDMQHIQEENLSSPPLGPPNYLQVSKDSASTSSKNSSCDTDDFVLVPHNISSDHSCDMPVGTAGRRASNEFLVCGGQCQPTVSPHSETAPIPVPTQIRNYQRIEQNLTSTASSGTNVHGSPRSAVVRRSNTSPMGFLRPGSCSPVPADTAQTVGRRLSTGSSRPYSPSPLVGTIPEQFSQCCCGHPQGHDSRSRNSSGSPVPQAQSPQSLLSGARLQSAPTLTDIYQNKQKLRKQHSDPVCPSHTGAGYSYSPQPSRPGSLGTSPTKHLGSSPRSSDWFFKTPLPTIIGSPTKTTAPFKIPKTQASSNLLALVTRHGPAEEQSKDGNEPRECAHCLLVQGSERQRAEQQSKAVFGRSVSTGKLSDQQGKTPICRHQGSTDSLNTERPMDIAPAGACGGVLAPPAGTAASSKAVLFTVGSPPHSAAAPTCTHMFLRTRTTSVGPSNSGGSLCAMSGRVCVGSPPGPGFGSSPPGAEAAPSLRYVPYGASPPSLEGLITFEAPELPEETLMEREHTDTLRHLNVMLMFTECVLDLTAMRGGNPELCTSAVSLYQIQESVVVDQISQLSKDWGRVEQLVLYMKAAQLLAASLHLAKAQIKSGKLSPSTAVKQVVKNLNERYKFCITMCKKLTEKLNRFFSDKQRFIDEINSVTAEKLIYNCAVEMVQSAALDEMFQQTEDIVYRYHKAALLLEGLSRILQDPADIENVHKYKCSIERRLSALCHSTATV

Some compounds with known IC50 results, for comparison:
1. CCc1cc2c(cc1Nc1ncc(C(F)(F)F)c(NCCCN3CCCCC3=O)n1)OC[C@H]1CN(C3CCOCC3)CCN21
< 1 nM
2. CCc1cc2c(cc1Nc1ncc(C(F)(F)F)c(NCCCN3CCOCCC3=O)n1)OC[C@H]1CN(C3CCN(C)CC3)CCN21
< 5 nM
3. CCc1cc2c(cc1Nc1ncc(C(F)(F)F)c(NCCCN3CCCCC3=O)n1)OC[C@H]1CN(C3CCN(C)CC3)CCN21
< 5 nM

The record that follows has no IC50 shown yet.
Qu. Entry under review: CCc1cc2c(cc1Nc1ncc(C(F)(F)F)c(NCCCN3CCOCCC3=O)n1)OC[C@H]1CN(C3CCOCC3)CCN21 . Reported IC50?
Ans. < 1 nM
